- Tested on: CCRIS mutagenicity, Ames/micronucleus/aberration tests
- method: CCRIS mutagenicity studies
- conditionSet: Test System: AMES SALMONELLA TYPHIMURIUM; Strain/Indicator: TA98; Metabolic Activation: RAT, LIVER, S-9, AROCLOR 1254; Method: PREINCUBATION
Calls of active or inactive are those of the source. How the calls were made is not given here.
observable: mutagenic call

Here are 5 compounds together with their reported answers.
Oc1cc(O)c2cc(O)c(-c3cc(O)c(O)c(O)c3)[o+]c2c1    inactive; negative
c1ccc(N2CCNCC2)cc1    inactive; negative
CC(=O)Oc1cc([N+](=O)[O-])c2ccc3cccc4ccc1c2c43    inactive; negative
CC(C)(C)C1=CC(=O)C=CC1=O    inactive; negative
CCC(=O)C(C)=O    inactive; negative

State the recorded mutagenic call for this entry: CCN(CC)CC(=O)Nc1c(C(=O)c2ccccc2F)c(C)nn1C
active; positive

State the recorded mutagenic call for this entry: CC(=O)Nc1ccc(Oc2ccc(N=O)cc2)cc1
active; positive

---

- Test system: CCRIS mutagenicity, Ames/micronucleus/aberration tests
- method: CCRIS mutagenicity studies
- conditionSet: Test System: AMES SALMONELLA TYPHIMURIUM; Strain/Indicator: TA1538; Metabolic Activation: NONE; Method: STANDARD PLATE
- Excerpt: The CCRIS database contains chemical records with carcinogenicity, mutagenicity, tumor promotion, and tumor inhibition test results. It was developed by the National Cancer Institute (NCI). Data are derived from studies cited in primary journals, current awareness tools, NCI reports, and other sources. Test results have been reviewed by experts in carcinogenesis and mutagenesis. CCRIS provides historical information from the years 1985 - 2011. It is no longer updated. […]
The source made the active and inactive calls. No rule for the calls is given here.
Please reply with one of these outcomes: active, inactive

Nc1ccc(N)c2c1C(=O)c1cccc([N+](=O)[O-])c1C2=O    active

In the following, a different compound is considered.
Test call, this compound: CN(CCO)CCO
inactive

---

- System: CCRIS mutagenicity, Ames/micronucleus/aberration tests
- method: CCRIS mutagenicity studies
- conditionSet: Test System: AMES SALMONELLA TYPHIMURIUM; Strain/Indicator: TA98; Metabolic Activation: RAT, LIVER, S-9, AROCLOR 1254; Method: PREINCUBATION
The source made the active and inactive calls. How the calls were made is not given here.
Please reply with one of these outcomes: active, inactive

Test call, this compound: CCN(CC)S(=O)(=O)c1ccc(NC(C)=O)cc1
inactive

Test call, this compound: ClC(Cl)(Cl)C(Cl)(Cl)Cl
inactive

Test call, this compound: CCn1c(N)nc2c3ncc(C)nc3ccc21
active

Test call, this compound: C=C(C)[C@H]1CC=C(C)CC1
inactive

Test call, this compound: Oc1ccccc1O
inactive

Test call, this compound: O=NN1CCSC1[C@H](O)[C@@H](O)[C@@H](O)CO (stereo not given in full)
inactive

Test call, this compound: O=c1[nH]c(=O)n([C@H]2C[C@H](O)[C@@H](CO)O2)cc1CCCl
inactive

Test call, this compound: CC(=O)CCC(C)=O
inactive

Test call, this compound: Cc1cnc(C)cn1
inactive

Test call, this compound: CSSC
inactive

---

- Tested on: CCRIS mutagenicity, Ames/micronucleus/aberration tests
- method: CCRIS mutagenicity studies
- conditionSet: Test System: AMES SALMONELLA TYPHIMURIUM; Strain/Indicator: TA1538; Metabolic Activation: NONE; Method: STANDARD PLATE
Activity calls are given as the source filed them. No rule for the calls is given here.
observable: mutagenic call

Here are 6 molecules together with their reported answers.
CN1CCC(=C2c3ccccc3C=Cc3ccccc32)CC1    inactive; negative
O=NN(CC(=O)O)CC(=O)O    inactive; negative
Cc1ccc2nc(-c3ccc(N)cc3)sc2c1    inactive; negative
O=[N+]([O-])C1=Cc2cccc3c2c1cc1ccc2ccccc2c13    active; positive
CN(C)CCCNc1c2ccccc2nc2ccccc12    active; positive
c1ccc(NNc2ccccc2)cc1    inactive; negative

State the recorded mutagenic call for this entry: CCCCOc1cc(N=Nc2ccc(NCCO)cc2NCCO)ccc1N=Nc1c(S(=O)(=O)O)cc2ccc(N)cc2c1O
inactive; negative

State the recorded mutagenic call for this entry: O=[N+]([O-])C1=Cc2cc3cc4ccccc4cc3c3cccc1c23
active; positive

---

- Test system: CCRIS mutagenicity, Ames/micronucleus/aberration tests
- method: CCRIS mutagenicity studies
- conditionSet: Test System: AMES SALMONELLA TYPHIMURIUM; Strain/Indicator: TA1538; Metabolic Activation: NONE; Method: STANDARD PLATE
Calls of active or inactive are those of the source. How the calls were made is not given here.
Please reply with one of these outcomes: active, inactive

As a guide, the following entries are already answered.
Cl[Si](Cl)(Cl)Cl    inactive
CCCCOCCOCCOCc1cc2c(cc1CCC)OCO2    inactive
CSC[C@H](NC(=O)COc1cccc2cnccc12)C(=O)N[C@@H](Cc1ccccc1)[C@H](O)C(=O)N1CSC[C@H]1C(=O)NC(C)(C)C    inactive
O=P(O)(O)Oc1c(Br)cc(Br)cc1-c1cc(Br)cc(Br)c1O    inactive
c1ccc2cc3c(ccc4ccccc43)cc2c1    inactive
ClCCNCCCNc1c2ccccc2nc2ccccc12    active
C[N+]1(C)CCOCC1    inactive
CC[C@@]1(O)C[C@H](O[C@H]2C[C@H](N(C)C)[C@H](O[C@H]3C[C@H](O)[C@H](O[C@H]4CCC(=O)[C@H](C)O4)[C@H](C)O3)[C@H](C)O2)c2c(cc3c(c2O)C(=O)c2c(O)cccc2C3=O)[C@H]1C(=O)OC    inactive

Test call, this molecule: CCCOC(=O)c1cc(O)c(O)c(O)c1
inactive

Test call, this molecule: CC(=O)Nc1ccc(N=Nc2cc(C)ccc2O)cc1
active

Test call, this molecule: FC(F)(F)c1ccccc1Cl
inactive
